# Measured Target: Adrenergic receptor alpha-1 (Rattus norvegicus, UniProt P15823+P23944+P43140)
# Sequence (P15823 whole entry): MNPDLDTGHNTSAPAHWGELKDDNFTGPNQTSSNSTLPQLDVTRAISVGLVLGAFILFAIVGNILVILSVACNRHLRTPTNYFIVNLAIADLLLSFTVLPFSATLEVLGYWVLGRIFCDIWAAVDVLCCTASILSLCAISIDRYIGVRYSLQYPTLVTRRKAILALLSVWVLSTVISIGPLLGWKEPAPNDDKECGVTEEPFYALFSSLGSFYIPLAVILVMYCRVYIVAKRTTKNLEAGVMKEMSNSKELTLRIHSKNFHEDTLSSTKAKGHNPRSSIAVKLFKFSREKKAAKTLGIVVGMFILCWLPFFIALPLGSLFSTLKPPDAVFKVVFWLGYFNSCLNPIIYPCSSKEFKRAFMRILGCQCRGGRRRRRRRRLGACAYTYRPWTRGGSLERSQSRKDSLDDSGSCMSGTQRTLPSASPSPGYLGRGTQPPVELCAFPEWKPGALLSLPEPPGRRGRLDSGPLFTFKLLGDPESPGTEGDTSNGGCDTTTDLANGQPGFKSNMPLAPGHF
# Sequence (P23944 whole entry): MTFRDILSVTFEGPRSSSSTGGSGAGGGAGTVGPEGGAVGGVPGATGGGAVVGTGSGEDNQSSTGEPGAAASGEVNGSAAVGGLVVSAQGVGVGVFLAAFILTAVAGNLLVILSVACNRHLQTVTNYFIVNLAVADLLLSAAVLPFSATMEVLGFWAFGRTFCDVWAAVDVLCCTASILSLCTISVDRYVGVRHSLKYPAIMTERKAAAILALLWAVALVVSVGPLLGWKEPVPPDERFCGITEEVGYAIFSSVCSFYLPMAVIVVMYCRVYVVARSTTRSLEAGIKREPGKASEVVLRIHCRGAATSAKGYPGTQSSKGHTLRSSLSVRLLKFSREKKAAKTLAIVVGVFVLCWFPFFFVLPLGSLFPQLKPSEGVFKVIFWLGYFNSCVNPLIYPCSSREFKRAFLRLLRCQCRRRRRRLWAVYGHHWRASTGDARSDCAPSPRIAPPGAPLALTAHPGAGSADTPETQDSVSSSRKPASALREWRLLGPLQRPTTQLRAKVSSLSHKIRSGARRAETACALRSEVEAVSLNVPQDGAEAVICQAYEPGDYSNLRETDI
# Sequence (P43140 whole entry): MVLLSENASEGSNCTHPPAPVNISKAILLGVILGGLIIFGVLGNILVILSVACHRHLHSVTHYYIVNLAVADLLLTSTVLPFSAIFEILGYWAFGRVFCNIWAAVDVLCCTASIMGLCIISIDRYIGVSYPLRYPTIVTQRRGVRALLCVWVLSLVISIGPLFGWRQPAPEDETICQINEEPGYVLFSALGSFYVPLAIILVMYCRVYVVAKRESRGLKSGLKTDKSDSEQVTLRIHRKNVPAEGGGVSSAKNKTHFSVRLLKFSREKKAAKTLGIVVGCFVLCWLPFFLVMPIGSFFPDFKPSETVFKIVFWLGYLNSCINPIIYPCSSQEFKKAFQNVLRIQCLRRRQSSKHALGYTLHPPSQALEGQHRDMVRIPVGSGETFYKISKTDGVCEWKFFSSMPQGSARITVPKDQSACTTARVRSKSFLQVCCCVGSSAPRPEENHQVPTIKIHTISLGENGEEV
# Method Description: Displacement of [3H]prazosin from alpha1 adrenoceptor in rat cerebral cortex after 30 mins by beta scintillation counting
# Type: tissue-based
Property Label: Ki (nM)

Worked examples follow.
{"columns": ["Compound", "Number"],
 "data": [
  ["COc1ccccc1N1CCN(CC(O)CN2C(=O)N/C(=C\\c3cccc(OC)c3OC)C2=O)CC1.Cl (racemic)", 70],
  ["COc1ccc(/C=C2\\NC(=O)N(CC(O)CN3CCN(c4ccccc4)CC3)C2=O)cc1OC.Cl (racemic)", 197.6],
  ["CCOc1ccccc1N1CCN(CC(O)CN2C(=O)N/C(=C\\c3ccc(OC)cc3OC)C2=O)CC1.Cl (racemic)", 231],
  ["CCOc1ccccc1N1CCN(CC(O)CN2C(=O)N/C(=C\\c3ccc(N(C)C)cc3)C2=O)CC1.Cl (racemic)", 8700],
  ["CCOc1ccccc1N1CCN(CC(O)CN2C(=O)N/C(=C\\c3ccccc3)C2=O)CC1.Cl (racemic)", 91.4]
]}

I: COc1ccccc1N1CCN(CC(O)CN2C(=O)N/C(=C\c3ccc(N(C)C)cc3)C2=O)CC1.Cl (racemic)
II: COc1ccccc1N1CCN(CC(O)CN2C(=O)N/C(=C\c3ccc(Cl)cc3)C2=O)CC1.Cl (racemic)
Prompt line: I need your help: which of the pair I , II has higher Ki? Selection: enter the item's label.
Response line: I

1: COc1ccc(/C=C2\NC(=O)N(CC(O)CN3CCN(c4ccccc4OC)CC3)C2=O)c(OC)c1.Cl (racemic)
2: COc1ccccc1N1CCN(CC(O)CN2C(=O)N/C(=C\c3ccccc3)C2=O)CC1.Cl (racemic)
Prompt line: Form field 'greater Ki' accepts 1 or 2 ; which applies? Could you answer with the label of the item you picked?
Response line: 2
(2: 285.9 nM, 1: 52.2 nM)

A: CCOc1ccccc1N1CCN(CC(O)CN2C(=O)N/C(=C\c3ccc(Cl)cc3)C2=O)CC1.Cl (racemic)
B: Cl.O=C1N/C(=C\c2ccc(Cl)cc2)C(=O)N1CC(O)CN1CCN(c2ccccc2)CC1 (racemic)
C: COc1cccc(/C=C2\NC(=O)N(CC(O)CN3CCN(c4ccccc4)CC3)C2=O)c1OC.Cl (racemic)
Prompt line: Reorder: Ki, max to min. Would you mind listing the labels in the order asked for?
Response line: B, C, A
(B: 3700 nM, C: 318.8 nM, A: 59.1 nM)

P: COc1ccc(/C=C2\NC(=O)N(CC(O)CN3CCN(c4ccccc4OC)CC3)C2=O)cc1OC.Cl (racemic)
Q: CCOc1ccccc1N1CCN(CC(O)CN2C(=O)N/C(=C\c3cccc(OC)c3OC)C2=O)CC1.Cl (racemic)
Prompt line: # argmax over Ki for candidates P and Q Pick one and reply with its label.
Response line: Q

* * *

# Measured Target: Adrenergic receptor alpha-1 (Rattus norvegicus) (UniProt P15823+P23944+P43140)
# Method Description: Antagonist activity at alpha1 adrenoceptor in Wistar rat denuded thoracic aorta rings assessed as inhibition of phenylephrine-induced contraction after 20 mins
# Format: functional, tissue-based
Property Label: pKb

{"columns": ["Compound", "pKb"],
 "data": [
  ["COc1ccc(/C=C2\\NC(=O)N(CC(O)CN3CCN(c4ccccc4OC)CC3)C2=O)c(OC)c1.Cl (racemic)", 8.95],
  ["CCOc1ccccc1N1CCN(CC(O)CN2C(=O)N/C(=C\\c3cccc(OC)c3OC)C2=O)CC1.Cl (racemic)", 7.53],
  ["CCOc1ccccc1N1CCN(CC(O)CN2C(=O)N/C(=C\\c3ccc(Cl)cc3)C2=O)CC1.Cl (racemic)", 9.01],
  ["CCOc1ccccc1N1CCN(CC(O)CN2C(=O)N/C(=C\\c3ccccc3)C2=O)CC1.Cl (racemic)", 7.66],
  ["COc1ccccc1N1CCN(CC(O)CN2C(=O)N/C(=C\\c3ccc(Cl)cc3)C2=O)CC1.Cl (racemic)", 7.58]
]}

The values you see were collected from ChEMBL document CHEMBL2046325.
